assay: Toxicity liver stage against HepG2, at 10uM; assay type: cell-based; parameters: test concentration 10 uM, cell line HepG2-A16-CD81EGFP; settings: human, HepG2-A16-CD81EGFP cells; read-out: INHIBITION
READOUT: cytotoxicity at 10 µM (%)
Give just the numeric value; % need not be written.

Use the examples below as a reference point.
[[record]]
molecule = "CC(=O)NCCN1CCC(c2cccs2)CC1"
readout = "cytotoxicity at 10 µM"
meas_value = -22.6

[[record]]
molecule = "COCc1noc(-c2ccc(N(C)Cc3ncccc3C)nc2)n1"
readout = "cytotoxicity at 10 µM"
meas_value = -0.0612

[[record]]
molecule = "COCCc1noc(Cn2ccc3ncccc3c2=O)n1"
readout = "cytotoxicity at 10 µM"
meas_value = -2.59

[[record]]
molecule = "COc1cc(CNC(C)Cn2cccn2)cc(OC)c1 (stereo unspecified)"
readout = "cytotoxicity at 10 µM"
meas_value = 0.681

[[record]]
molecule = "CN(C[C@H]1CN2CC[C@H]1C[C@@H]2CNC(=O)c1ccco1)c1ccccc1"
readout = "cytotoxicity at 10 µM"
meas_value = -0.947

[[record]]
molecule = "CCc1ccccc1OCC(=O)Nc1ccnc(OCCN(C)C)c1"
readout = "cytotoxicity at 10 µM"
meas_value = 17.8

[[record]]
molecule = "COC1COC2(CCN(Cc3ccccc3F)CC2)C1 (stereo unspecified)"
readout = "cytotoxicity at 10 µM"
meas_value = -5.58

[[record]]
molecule = "Cc1oc(-c2ccco2)nc1CC(=O)N1CCN(C2CCC2)CC1"
readout = "cytotoxicity at 10 µM"
meas_value = 4.33

[[record]]
molecule = "CCN(Cc1noc(CC(C)C)n1)Cc1cc2ccc(F)cc2[nH]c1=O"
readout = "cytotoxicity at 10 µM"
meas_value = 3.34

[[record]]
molecule = "OCC(O)CSCc1cc(Cl)ccc1Cl (stereo unspecified)"
readout = "cytotoxicity at 10 µM"
meas_value = -147


Task: Consider the molecule shown here: Cc1ncc(CC(=O)N2CCCC(COc3ccccc3F)C2)c(=O)[nH]1 (stereo unspecified) What is its recorded cytotoxicity at 10 µM?
Output: -151

Task: Find the recorded cytotoxicity at 10 µM belonging to Cc1ccc(C2CCCCCN2Cc2cn(C)nc2C)s1 (stereo unspecified) and report it.
Output: -6.47

----------
assay: Toxicity liver stage against HepG2, at 10uM; assay type: cell-based; parameters: test concentration 10 uM, cell line HepG2-A16-CD81EGFP; conditions: human, HepG2-A16-CD81EGFP cells; read-out: INHIBITION
cytotoxicity at 10 µM values for the compounds below.
# number only, unit % dropped from output

[[record]]
compound = "Cn1ccnc1CN1C[C@H]2CN(S(=O)(=O)c3ccccc3)CCN2C1=O"
unit_descriptor = "%"
meas_value = 8.36

[[record]]
compound = "CC(C)c1nc(CN(C)Cc2ccc(O)c(C(=O)O)c2)cs1"
unit_descriptor = "%"
meas_value = -4.24

[[record]]
compound = "O=C(NCc1cccnc1-n1cncn1)c1ccc2c(c1)CCO2"
unit_descriptor = "%"
meas_value = -14.2

[[record]]
compound = "Cc1cc(NCc2ccc(C#N)cc2)n2nc(C)cc2n1"
unit_descriptor = "%"
meas_value = -10.9

[[record]]
compound = "Cc1cc(OC(F)F)c(C(=O)N2CC[C@H](O)C2)s1"
unit_descriptor = "%"
meas_value = 9.67


Task: Looking for the measured cytotoxicity at 10 µM of O=C(c1ccc(Cn2cnnn2)cc1)N1CCC(c2ccncc2)CC1 , can you help?
Output: 0.571

Task: Need cytotoxicity at 10 µM of O=C(C[C@@H]1COC[C@H]2CN(CC3CC3)C[C@@H]12)N1CCCCO1 , thanks.
Output: 4.08

Task: Please give the measured cytotoxicity at 10 µM for this compound: COCC(=O)N1CCC2(CC1)CCn1c(-c3cccc(OC)c3)cnc12
Output: -5.21

Task: Please give the measured cytotoxicity at 10 µM for this compound: Cc1ccc(N2CCC3(CN(Cc4ccncc4)CCC3(F)F)C2)nn1 (configuration not stated)
Output: 28.6

----------
# cytotoxicity at 10 µM values compiled below
assay: Toxicity liver stage against HepG2, at 10uM; type: cell-based; design: test concentration 10 uM, cell line HepG2-A16-CD81EGFP; conditions: human, HepG2-A16-CD81EGFP cells; read-out: INHIBITION
Write it as a number; the unit % goes unstated.

Task: State the recorded cytotoxicity at 10 µM for this entry: CC(C)OCCC(=O)N(C)c1ccc(F)c(Cl)c1
Output: -4.62

Task: Report cytotoxicity at 10 µM for CN1N=C(C(=O)N2CCCC(CCc3ccccc3)C2)CCC1=O (centres undefined) please.
Output: -10.5

Task: # cytotoxicity at 10 µM lookup, item CC1CCCN(S(=O)(=O)NCCNC(=O)c2ncccc2O)C1 (centres undefined)
Output: 3.07

Task: Find the recorded cytotoxicity at 10 µM belonging to O=C(Nc1ccccc1)N1C[C@@H]2CC[C@H]1CN(Cc1ccccc1)C2 and report it.
Output: 1.93

----------
experiment: Toxicity liver stage against HepG2, at 10uM; type: cell-based; design: test concentration 10 uM, cell line HepG2-A16-CD81EGFP; conditions: human, HepG2-A16-CD81EGFP cells; read-out: INHIBITION
READOUT: cytotoxicity at 10 µM (%)
Your answer is read as %, so omit the unit and give the number.

Look over these answered cases.
[[record]]
compound = "Cc1[nH]nc2ncc(C(=O)N3CCCC3c3noc(C(C)C)n3)cc12 (stereo not drawn)"
meas_value = 8.38

[[record]]
compound = "Cc1cc(C[C@@H]2CCC[C@H]2NCc2ccccc2C(F)(F)F)on1"
meas_value = 2.8

[[record]]
compound = "CN(C(=O)CN1CCCC1Cc1ccccc1)c1ccccc1 (stereo not drawn)"
meas_value = 17.8


Task: Return reported cytotoxicity at 10 µM; argument: CN(C(=O)NCc1nccn1CCc1ccccc1)C1CCC1
Output: 1.96

Task: Any idea what its cytotoxicity at 10 µM is? The compound is CSCCC1c2nc[nH]c2CCN1Cc1ccccc1C(F)(F)F (stereo not drawn)
Output: 1.09

Task: I'd like to know its cytotoxicity at 10 µM. The compound in question is CCN(CC1CCOCC1)C(=O)Cn1ccccc1=O
Output: -19.9

Task: Find the recorded cytotoxicity at 10 µM belonging to CO[C@H]1CN(C(C)C)C[C@@H]1NC(=O)Nc1ccc2oc(C)cc2c1 and report it.
Output: 0.0448

Task: Could you share which cytotoxicity at 10 µM value was measured for COc1cc(-c2nc(C3CC3)nn2-c2ccnc(C)c2)nc(OC)n1 ?
Output: 2.64

----------
// reported cytotoxicity at 10 µM per item
test: Toxicity liver stage against HepG2, at 10uM; assay type: cell-based; set-up: test concentration 10 uM, cell line HepG2-A16-CD81EGFP; settings: human, HepG2-A16-CD81EGFP cells; read-out: INHIBITION
Report the value in % with no unit label.

See these solved cases before continuing.
[[record]]
smiles_data = "Cc1ccc(C)c(C(=O)CN2C(=O)c3ccccc3CS2(=O)=O)c1"
readout = "cytotoxicity at 10 µM"
meas_value = -8.42

[[record]]
smiles_data = "CCCN(CCC)C1(Cc2cc(-c3cccc(O)c3)on2)COC1"
readout = "cytotoxicity at 10 µM"
meas_value = -1.19

[[record]]
smiles_data = "Cc1ccc(C(=O)N2CCc3ncnc(C)c3CC2)o1"
readout = "cytotoxicity at 10 µM"
meas_value = 7.89


Task: Endpoint output: cytotoxicity at 10 µM of CCCC(=O)N1CCC(N2CC[C@@](O)(CCOC)[C@H](C)C2)CC1 . Value?
Output: -3.58

----------
experiment: Toxicity liver stage against HepG2, at 10uM; type: cell-based; set-up: test concentration 10 uM, cell line HepG2-A16-CD81EGFP; conditions: human, HepG2-A16-CD81EGFP cells; read-out: INHIBITION
Recorded cytotoxicity at 10 µM, one value per entry.
Reply with just the number (in %).

Observe how each entry below is paired with its result.
[[record]]
compound = "CCOCC(=O)NC(C)Cc1ccccc1Br (centres undefined)"
readout = "cytotoxicity at 10 µM"
meas_value = -11

[[record]]
compound = "CC(C)c1cc(O)nc(C2CCCN2C(=O)C(C)(C)C)n1 (centres undefined)"
readout = "cytotoxicity at 10 µM"
meas_value = -17.8

[[record]]
compound = "O=C(Nc1ccccc1Cn1cccn1)N1CCCC(N2CCCC2)C1 (centres undefined)"
readout = "cytotoxicity at 10 µM"
meas_value = 5.6

[[record]]
compound = "O=C(C1CC1)N1CCN2C[C@H](c3ccccc3)[C@@H](CO)[C@H]2C1"
readout = "cytotoxicity at 10 µM"
meas_value = 4.9

[[record]]
compound = "COC1COC2(CCN(Cc3ccc4c(c3)OCO4)CC2)C1 (centres undefined)"
readout = "cytotoxicity at 10 µM"
meas_value = 0.729

[[record]]
compound = "COc1ccc(OCCC(=O)N2CCCC2Cn2cccn2)cc1 (centres undefined)"
readout = "cytotoxicity at 10 µM"
meas_value = -39

[[record]]
compound = "COCCN(C)C(=O)c1nc2c(s1)CCCN2C"
readout = "cytotoxicity at 10 µM"
meas_value = -143

[[record]]
compound = "Cc1ccc(=O)n(CC2(O)CCN(Cc3cnc(C)nc3)CC2)n1"
readout = "cytotoxicity at 10 µM"
meas_value = 4.3


Task: Quick one: cytotoxicity at 10 µM of CC(OCC1CC1)C(=O)N1CCCN(c2nc3ccccc3[nH]2)CC1 (centres undefined) ?
Output: -0.657

Task: So what's the measured cytotoxicity at 10 µM for this one? COc1c(CNC2CCOc3ccccc32)c(C(C)C)nn1C (centres undefined)
Output: -0.169

Taken from ChEMBL document CHEMBL4513216.
